// values below are reported cell viability
test system: MARIMO; test: cell viability relative to vehicle control; higher = less cytotoxic; details: 10 µM; SRSF2 genotype: SRSF2 P95H/wt;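 note: after 48 h exposure read by CellTiter-Glo luminescence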
Structures can show the parent of a compound that is named as a salt.
Write the value in % as a bare number.

For the molecule C/C=C\c1cc(OC)c(OC)cc1OC [Beta-Asarone] , report cell viability.
98

For the molecule CN1C2CC(OC(=O)C(CO)c3ccccc3)CC1C(O)C2 (stereo not drawn) [Raceanisodamine] , report cell viability.
99

For the molecule CC(=O)Nc1ccc(Cc2ccc(NC(C)=O)cc2)cc1 , report cell viability.
105

For the molecule CC(C)=CCCC(C)(O)C1CCC2(C)C1C(O)CC1C3(C)CCC(OC4OC(CO)C(O)C(O)C4O)C(C)(C)C3CCC12C [(20R)Ginsenoside Rh2] , report cell viability.
101

For the molecule CN1C(=O)[C@@]23C[C@]4([C@]56C[C@@]78SS[C@@](CO)(C(=O)N7[C@H]5Nc5ccccc56)N(C)C8=O)c5ccccc5N[C@@H]4N2C(=O)[C@]1(CO)SS3 [Chaetocin] , report cell viability.
0.27

For the molecule CN(C)Cc1c[nH]c2ccccc12 [Gramine] , report cell viability.
102

For the molecule CN1C2CC(O)CC1C1OC12 (stereo not drawn) [Scopine] , report cell viability.
101

For the molecule Cc1ccccc1-n1c(CF)nc2ccc(N)cc2c1=O [Afloqualone] , report cell viability.
84.5

For the molecule CCCCCCC[n+]1ccc(-c2cc[n+](CCCCCCC)cc2)cc1 [DHBP dibromide] , report cell viability.
71

For the molecule Cl[TeH]1(Cl)(Cl)OCCO1.N , report cell viability.
78

For the molecule CCN1C[C@]2(COC)CC[C@H](OC)[C@]34C1[C@H]([C@H](OC)[C@H]23)[C@@]1(OC(C)=O)C[C@H](OC)[C@@]2(O)C[C@@H]4[C@@H]1[C@H]2OC(=O)c1ccc(OC)cc1 [Crassicauline A] , report cell viability.
84.4

For the molecule CN(C)C(=O)Oc1ccc[n+](C)c1 [Pyridostigmine Bromide (Mestinon)] , report cell viability.
93.5

For the molecule Cc1c(N[C@@H](c2nnc(-c3ccc(C#N)cc3)o2)[C@H](C)O)ccc(C#N)c1Cl , report cell viability.
88.4

For the molecule CCC1(c2cccc(O)c2)CCCCN(C)C1 (stereo not drawn) [Meptazinol HCl] , report cell viability.
91

For the molecule O=C([O-])C(Cl)Cl.[Na+] [Sodium dichloroacetate (DCA)] , report cell viability.
96.1

For the molecule C=C1CC[C@H]2[C@@H](C=C(C)C(=O)[C@@]3(O)C[C@H](C)[C@H](O)[C@@H]3[C@H]1O)C2(C)C [Lathyrol] , report cell viability.
92.5

For the molecule COc1ccc2c(c1OC)CC1c3c(cc4c(c3-2)OCO4)CCN1C (stereo not drawn) [Crebanine] , report cell viability.
80.5
